Target: UniProt P05177
Sequence (P05177 whole entry): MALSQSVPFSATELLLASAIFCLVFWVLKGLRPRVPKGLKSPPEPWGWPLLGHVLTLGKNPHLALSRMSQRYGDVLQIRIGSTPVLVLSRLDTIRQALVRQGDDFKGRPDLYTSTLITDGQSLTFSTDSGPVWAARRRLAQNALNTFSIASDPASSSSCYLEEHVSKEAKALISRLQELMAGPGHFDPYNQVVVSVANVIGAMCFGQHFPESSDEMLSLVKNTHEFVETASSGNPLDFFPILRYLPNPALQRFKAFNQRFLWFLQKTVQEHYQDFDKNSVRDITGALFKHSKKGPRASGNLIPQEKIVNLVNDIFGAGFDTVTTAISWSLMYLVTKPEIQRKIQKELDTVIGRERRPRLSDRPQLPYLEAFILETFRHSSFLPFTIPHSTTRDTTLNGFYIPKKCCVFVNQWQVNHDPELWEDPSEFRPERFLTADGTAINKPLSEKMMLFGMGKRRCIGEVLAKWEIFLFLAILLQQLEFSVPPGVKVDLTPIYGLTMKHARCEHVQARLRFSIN
Would you mind telling me the reported IC50 of each entry?

CCNC(=O)[C@@H]1C[C@@H](NC(=O)c2cc(CC)nn2C)CN1C(=O)c1coc2ccccc12    > 50 µM

Query: IC50; subject: CCc1cc(C(=O)N[C@@H]2C[C@@H](C(N)=O)N(C(=O)c3coc4ccccc34)C2)n(CC)n1
> 50 µM
